Target: ER-α (Homo sapiens)
Construct: endogenous in cells; host or cells: MCF-7
Sequence (P03372 1-595): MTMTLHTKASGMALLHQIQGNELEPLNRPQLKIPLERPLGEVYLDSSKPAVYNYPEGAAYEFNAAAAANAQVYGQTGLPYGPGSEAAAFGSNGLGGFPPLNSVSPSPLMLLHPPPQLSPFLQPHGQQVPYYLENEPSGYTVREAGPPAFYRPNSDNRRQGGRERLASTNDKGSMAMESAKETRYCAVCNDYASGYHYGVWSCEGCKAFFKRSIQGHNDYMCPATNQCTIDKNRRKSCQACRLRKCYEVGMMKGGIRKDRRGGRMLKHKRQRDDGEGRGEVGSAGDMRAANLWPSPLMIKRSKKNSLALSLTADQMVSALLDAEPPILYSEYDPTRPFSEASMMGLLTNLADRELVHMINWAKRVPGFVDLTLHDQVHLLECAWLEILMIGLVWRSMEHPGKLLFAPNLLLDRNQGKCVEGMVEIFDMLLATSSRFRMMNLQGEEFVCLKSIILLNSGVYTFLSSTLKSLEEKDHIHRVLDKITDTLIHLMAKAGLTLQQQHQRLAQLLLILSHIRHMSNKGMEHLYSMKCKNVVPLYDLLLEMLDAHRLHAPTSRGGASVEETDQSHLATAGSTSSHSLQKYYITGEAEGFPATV
Experiment: Breast Cancer Cell ER-α In Cell Western Assay (SP1)
Format: cell-based
Details: MCF-7 cells, 4 or 24 hr post compound addition, SP1 antibody; read-out: ER-α In Cell Western Assay (SP1) IC50
Provide the recorded DC50 for the entries that follow.

Worked examples, 6 molecules total:
| compoundSmiles | measuredValue |
| --- | --- |
| O=C(O)/C=C/c1ccc(/C(=C(\c2ncccc2F)C2CCC2)c2ccc(-c3cn[nH]c3)cc2)cc1 | ≤ 100 nM |
| O=C(O)/C=C/c1ccc(/C(=C(\c2ccccc2)C2CCC2)c2ccc(-c3cn[nH]c3)cc2)cc1 | ≤ 100 nM |
| Cc1cccnc1/C(=C(\c1ccc(/C=C/C(=O)O)cc1)c1ccc(-c2cn[nH]c2)cc1)C1CCC1 | ≤ 100 nM |
| Cc1cscc1/C(=C(\c1ccc(/C=C/C(=O)O)cc1)c1ccc(-c2cnn(CCO)c2)cc1)C1CCC1 | ≤ 100 nM |
| CN(C)CCn1cc(-c2ccc(/C(=C(/c3ccccc3)C3CCC3)c3ccc(/C=C/C(=O)O)cc3)cc2)cn1 | ≤ 100 nM |
| N#Cc1cc(N2CCOCC2)ccc1/C(=C(/c1ccc(F)cc1Cl)C1CCC1)c1ccc(/C=C/C(=O)O)cc1 | ≤ 100 nM |

Parameters: items (list). Returns: DC50 for each item.
1. COc1ccc(/C(=C(\c2ccc(/C=C/C(=O)O)cc2)c2ccc(-c3cn[nH]c3)cc2)C2CCC2)c(Cl)c1
2. O=C(O)/C=C/c1ccc(/C(=C(\c2ccccc2)C2CCC2)c2ccc(N3CCNCC3)cc2)cc1
3. O=C(O)/C=C/c1ccc(/C(=C(\c2ccccc2)C2CCC2)c2ccc(-c3cncs3)cc2)cc1
4. CC/C(=C(/c1ccc(/C=C/C(=O)O)cc1)c1ccc(-c2cncs2)cc1)c1ccc(F)cc1Cl
5. O=C(O)/C=C/c1ccc(/C(=C(\c2ncc(C(F)(F)F)cc2Cl)C2CCC2)c2ccc(N3CCOCC3)cc2)cc1

≤ 100 nM
≤ 100 nM
≤ 100 nM
≤ 100 nM
≤ 100 nM
